tested on: SW 1271 complex tumor spheroid viability; test: Anticancer human tumor SW 1271 cell line growth inhibition; conditions: second compound 31.6 µM; first compound 0.0949 µM; active compounds read low;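 further: spheroids exposed to agents for seven days before readout; percent of DMSO vehicle control luminescence so 100% = vehicle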
readout: viability, T/C (%)
One number for each entry, in %.

The following molecules have reported results that may help.
| molecule | quantity-unit | viability, T/C |
| --- | --- | --- |
| O=C(c1cc(Cc2n[nH]c(=O)c3ccccc23)ccc1F)N1CCN(C(=O)C2CC2)CC1 + Cn1nnc2c(C(N)=O)ncn2c1=O | % | 82.5 |
| Cn1ncnc1[C@H]1c2n[nH]c(=O)c3cc(F)cc(c23)N[C@@H]1c1ccc(F)cc1 + Cn1nnc2c(C(N)=O)ncn2c1=O | % | 29.3 |

Answer for every listed entry: what is its viability, T/C? The entries follow.
1. CNCc1ccc(-c2cc(-c3nc(-c4ccc(S(=O)(=O)C(C)C)cc4)cnc3N)on2)cc1 + Cn1nnc2c(C(N)=O)ncn2c1=O
2. Cc1sc2c(c1C)C(c1ccc(Cl)cc1)=NC(CC(=O)Nc1ccc(O)cc1)c1nnc(C)n1-2 (centres undefined) + Cn1nnc2c(C(N)=O)ncn2c1=O

(A)
1. 75.5
2. 33.5

----------
tested on: SW 1271 complex tumor spheroid viability; experiment: Anticancer human tumor SW 1271 cell line growth inhibition; conditions: second compound 0.0949 µM; first compound 0.1 µM; active = viability on the fitted dose curve at most 10% of control; inactive = the rest;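 further: spheroids exposed to agents for seven days before readout; percent of DMSO vehicle control luminescence so 100% = vehicle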
Give your call using only these classes: 1 (yes) (active), 0 (no) (inactive)

Some solved entries appear below for comparison.
| compound | answer-label |
| --- | --- |
| CC1COCCN1c1cc(-c2ccnn2C)c2ccnc(-c3ccn[nH]3)c2n1 (stereo not drawn) + CC[C@@]1(O)C(=O)OCc2c1cc1n(c2=O)Cc2cc3c(CN(C)C)c(O)ccc3nc2-1 | 1 (yes) |
| Cc1cc(C)c(CNC(=O)c2cc(-c3ccc(CN4CCOCC4)cc3)cc3c2cnn3C2CCCC2)c(=O)[nH]1 + CC[C@@]1(O)C(=O)OCc2c1cc1n(c2=O)Cc2cc3c(CN(C)C)c(O)ccc3nc2-1 | 0 (no) |

(Q) Tell me the assay call for CC(C)n1c(=O)n(C)c2cnc3cc(F)c(-c4ccc(OCCCN5CCCCC5)nc4)cc3c21 + CC[C@@]1(O)C(=O)OCc2c1cc1n(c2=O)Cc2cc3c(CN(C)C)c(O)ccc3nc2-1 please.
(A) 0 (no)

----------
tested on: SW 1271 complex tumor spheroid viability; experiment: Anticancer human tumor SW 1271 cell line growth inhibition; settings: second compound 1 µM; first compound 3 µM; active = viability on the fitted dose curve at most 10% of control; inactive = the rest;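 further: spheroids exposed to agents for seven days before readout; percent of DMSO vehicle control luminescence so 100% = vehicle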
The reply should be one of these categories: TRUE = active, FALSE = inactive

| compound | answer-label |
| --- | --- |
| O=C(c1cc(Cc2n[nH]c(=O)c3ccccc23)ccc1F)N1CCN(C(=O)C2CC2)CC1 + Cn1nnc2c(C(N)=O)ncn2c1=O | FALSE |

(Q) Lab log entry: CNCc1ccc(-c2cc(-c3nc(-c4ccc(S(=O)(=O)C(C)C)cc4)cnc3N)on2)cc1 + Cn1nnc2c(C(N)=O)ncn2c1=O — outcome as called in the assay?
(A) TRUE

(Q) Outcome? Cc1sc2c(c1C)C(c1ccc(Cl)cc1)=NC(CC(=O)Nc1ccc(O)cc1)c1nnc(C)n1-2 (centres undefined) + Cn1nnc2c(C(N)=O)ncn2c1=O
(A) TRUE

(Q) Which outcome did this test record for the compound Cn1ncnc1[C@H]1c2n[nH]c(=O)c3cc(F)cc(c23)N[C@@H]1c1ccc(F)cc1 + Cn1nnc2c(C(N)=O)ncn2c1=O ?
(A) FALSE
